- assay-remarks: Acute toxicity, mortality within 24 hours (oral, mice)
- Assay type: in vivo
- assay-conditions: mouse, in vivo, po, 1000 mg/kg
mortality at 24 h values for the compounds below.

compound | mortality at 24 h (%)
Cc1cc(-c2ccccc2)nnc1NCC(C)O (stereo not drawn) | 100
Cc1cc(-c2ccccc2)nnc1NCCN1CCOCC1 [Minaprine, reference compound] | 100
OCCNc1nnc(-c2ccccc2)cc1-c1ccccc1 | 60

---

- System: convulsivant effects of strychnine
- assay-remarks: Anti-Strychnine Activity (oral, mice)
- Format: in vivo
- assay-conditions: mice, oral
assay-readout: anti-convulsivant activity with respect to strychnine (in words)

compound | obs-value
OCCNc1nnc(-c2ccccc2)cc1-c1ccccc1 [CM 30339] | particularly powerful
Cc1cc(-c2ccccc2)nnc1NCC(C)O (centres unmarked) [CM 30096] | particularly powerful
COCCNc1nnc(-c2ccccc2)cc1C [CM 30310] | particularly powerful

---

Below is a list of entries, each paired with its recorded mortality at 24 h value.
- assay-remarks: Acute toxicity, mortality within 24 hours (oral, mice)
- Format: in vivo
- assay-conditions: mouse, in vivo, po, 500 mg/kg

compound | mortality at 24 h (%)
OCCNc1nnc(-c2ccccc2)cc1-c1ccccc1 | 60
Cc1cc(-c2ccccc2)nnc1NCCN1CCOCC1 [Minaprine, reference compound] | 100
Cc1cc(-c2ccccc2)nnc1NCC(C)O (stereo not drawn) | 20

---

- Tested on: convulsivant effects of strychnine
- assay-remarks: Anti-Strychnine Activity (oral, mice)
- Type: in vivo
- assay-conditions: Mus musculus, po, read-out: Inhibition of the convulsivant effects of Strychinine ED50
Where a name gives a salt, the structure may show the parent alone.
ED50 strictly less than 100 mg/kg = YES. Otherwise NO.

compound | label-class
Cc1cc(-c2ccccc2)nnc1NCC(C)O (centres unmarked) [CM 30096] | YES
COCCNc1nnc(-c2ccccc2)cc1C [CM 30310] | NO
CCCC(CCC)C(=O)O [Sodium Valproate, sodium salt of valproic acid, reference compound] | NO
Cc1cc(-c2ccccc2)nnc1NCCO [CM 30094] | NO
OCCNc1nnc(-c2ccccc2)cc1-c1ccccc1 [CM 30339] | NO

---

Quick reference for mortality at 24 h among some compounds
- assay-remarks: Acute toxicity, mortality within 24 hours (oral, mice)
- Assay type: in vivo
- assay-conditions: mouse, in vivo, po, 250 mg/kg

compound | mortality at 24 h (%)
OCCNc1nnc(-c2ccccc2)cc1-c1ccccc1 [CM 30339] | 0
Cc1cc(-c2ccccc2)nnc1NCCN1CCOCC1 [Minaprine, reference compound] | 100
Cc1cc(-c2ccccc2)nnc1NCC(C)O (stereo not drawn) [CM 30096] | 0

Entry source: patent US4710499A
